- TARGET OF ASSAY: GTPase HRas (Homo sapiens)
- TEST METHOD NOTES: Ras wt fluorescent GTP loading blockade – biochemical, wildtype, multiplex bead flow cytometry, dose response (AID 1335)
- ASSAY SETUP: bead-based flow cytometry, Bodipy-GTP binding to GST-Ras; at 100 µM (top of the series) unless noted
RECORDED METRIC: GTP binding, percent of control
For clarity, give the value followed by its unit.

As a guide, the following entries are already answered.
>>> experimental_value("O=C(C#Cc1ccccc1F)c1ccc([N+](=O)[O-])cc1")
"179%"
>>> experimental_value("COc1cc(/C=N\\NC(=O)CNC(=O)C2COc3ccccc3O2)ccc1O (stereo unspecified)")
"62.3%"
>>> experimental_value("O=c1c(/C=N/Nc2ccccc2)c(Sc2nnnn2-c2ccccc2)nc2ccccn12")
"114%"
>>> experimental_value("COc1ccccc1CCNCc1ccc(C(=O)O)s1")
"88.4%"
>>> experimental_value("COc1ccc(-c2cc(C(F)(F)F)n3nc(C(=O)O)cc3n2)cc1OC")
"67.7%"

Give GTP binding, percent of control for all compounds that follow.
1. COc1ccc(-c2cc(-c3ccc(O)cc3)nc(N)c2C#N)cc1OC
2. N#C/C(=C/c1ccc(N2CCCCCC2)o1)c1ccc(Cl)cc1
3. COc1ccc(-c2cc(=O)c(C(=O)c3ccc(C)cc3)n[nH]2)cc1
4. CCOC(=O)c1cc2c(N)c(C(=O)c3ccc(Br)cc3)sc2[nH]c1=O
5. Cc1ccc(C(C)C)c(OCCn2cc(C(=O)O)c3ccccc32)c1

RESULT:
1: 77.1%; 2: 205%; 3: 80.8%; 4: 69.1%; 5: 86.3%

QUERY: // query GTP binding, percent of control value for entry `O=C(O)c1ccc(Nc2nc(-c3cc4ccccc4oc3=O)cs2)cc1O`
RESULT: 74.6%

###

- TEST METHOD NOTES: cytosolic pH regulators acting via V-ATPase – S. cerevisiae, pHLuorin, HTS validation (AID 504600);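 note: plate controls were DMSO for no effect and reference compound for full effect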
- ASSAY SETUP: V-ATPase proton transport, at 10 µM, stronger effect = higher value
Active and inactive are the calls of the source. Rule as the data show it: active = response above about 15%; inactive = the rest.
RECORDED METRIC: response

>>> experimental_value("Cc1cc(/C=N/O)c(C)n1-c1ccc(Br)cc1")
"-0.17% (inactive)"
>>> experimental_value("Cc1c(NC(=O)c2cccs2)cccc1[N+](=O)[O-]")
"-1.2% (inactive)"
>>> experimental_value("CC(=O)OC[C@H]1O[C@@H](Sc2cccc3cccnc23)[C@H](OC(C)=O)[C@@H](OC(C)=O)[C@H]1OC(C)=O")
"0.07% (inactive)"
>>> experimental_value("CN1CCN(CCCN2c3ccccc3Sc3ccc(Cl)cc32)CC1")
"1.39% (inactive)"
>>> experimental_value("CC(=O)CC(c1ccc([N+](=O)[O-])cc1)c1c(O)c2ccccc2oc1=O (stereo unspecified)")
"1.39% (inactive)"

Please report response for every entry that follows.
1. C[N+](C)(C)CCOP(=O)([O-])OC[C@H](O)CO
2. CC1=CC(=O)c2ccccc2C1=O
3. COc1cc(CNCCc2c[nH]c3ccccc23)cc(Cl)c1OCC(N)=O
4. Cc1ccnc(NS(=O)(=O)c2ccc(N)cc2)n1
5. O=C(NCCO)c1ccc(Cl)c(Cl)c1
6. CS(=O)(=O)Nc1ccc([N+](=O)[O-])cc1Oc1ccccc1

RESULT:
["0.86% (inactive)", "1.78% (inactive)", "1.24% (inactive)", "-1.12% (inactive)", "0.22% (inactive)", "2.46% (inactive)"]

###

For each of the molecules below, state its fluorescence, percent of control (lower = inhibition).
- TARGET OF ASSAY: Cell division control protein 42 homolog (Homo sapiens) (UniProt P60953)
- Sequence (P60953 whole entry, looked up): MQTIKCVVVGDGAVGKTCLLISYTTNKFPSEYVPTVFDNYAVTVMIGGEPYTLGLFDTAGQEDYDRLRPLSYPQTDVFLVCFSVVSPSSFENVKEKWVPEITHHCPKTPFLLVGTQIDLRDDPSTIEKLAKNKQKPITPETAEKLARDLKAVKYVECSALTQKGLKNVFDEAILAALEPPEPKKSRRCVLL
- TEST METHOD NOTES: inhibition of fluorescent GTP binding to wildtype Cdc42 – biochemical, multiplex bead flow cytometry, Bodipy-FL-GTP, dose response (AID 1334)
- ASSAY SETUP: bead-based flow cytometry, Bodipy-FL-GTP binding to GST-Cdc42; at 100 µM (top of the series) unless noted
Potency and affinity values are given separately.
One number for each entry, in %.

>>> experimental_value("Nc1cccc(S(=O)(=O)c2cccc(N)c2)c1")
96.8
>>> experimental_value("COc1ccc(C=O)cc1CSc1ncccc1C(=O)O")
61.6
>>> experimental_value("O=C(OCC1O[C@@H](OC(=O)c2cc(O)c(O)c(O)c2)[C@@H](OC(=O)c2cc(O)c(O)c(O)c2)[C@@H](OC(=O)c2cc(O)c(O)c(O)c2)[C@@H]1OC(=O)c1cc(O)c(O)c(O)c1)c1cc(O)c(O)c(O)c1 (stereo partly specified)")
21.1

Provide fluorescence, percent of control (lower = inhibition) values for the following items, in order.
1. CC(=O)OC(C(=O)NC1CCCCC1)c1ccc(Cl)c(Cl)c1 (stereo unspecified)
2. Cc1cc(NC(=O)c2cccc(C(=O)Nc3cc(C)on3)n2)no1
3. O=C(NCCc1c[nH]c2ccccc12)c1cccc(S(=O)(=O)Nc2ccccc2Cl)c1
4. CNc1ncc(C(=O)c2ccc(Br)cc2)s1
5. C/C(=C1/SC(=S)N(CCC(=O)O)C1=O)c1ccc(O)cc1
6. CC(C)Cc1csc(NC(=O)c2ccccc2Cl)c1C(=O)O
7. O=C(C#Cc1ccc(-c2ccccc2)cc1)c1ccc([N+](=O)[O-])cc1

RESULT:
[39.6, 40, 32.1, 37.3, 29.5, 29.8, 44.5]

Please give fluorescence, percent of control (lower = inhibition) for each item listed below.
1. COc1cccc(N2CCN(C(=O)CCCCCNc3nc(=S)[nH]c4ccccc34)CC2)c1
2. Cc1nc2nc(SCC(=O)O)nn2c(C)c1Cc1c(F)cccc1Cl
3. Cc1cc(C)n2nc(C(=O)Nc3ccc(S(=O)(=O)N4CCCC4)cc3)nc2n1
4. COc1ccc(OC)c(S(=O)(=O)Nc2ccc(O)c(Sc3ncn[nH]3)c2)c1
5. CC(C)(C)c1ccc(C(=O)CC(Sc2ccc(Cl)cc2)C(=O)O)cc1 (stereo unspecified)
6. O=C(CSc1ccc2nnc(-c3cccc(F)c3)n2n1)N1CCCc2ccccc21
7. Cc1cc(-c2n[nH]c(=S)n2/N=C/C(Cl)=C/c2ccccc2)n[nH]1

RESULT:
[38.1, 28.4, 37, 48.6, 30.3, 37.7, 33.9]

###

Can you tell me superoxide response (% of plate) for the items I'm about to list?
- TEST METHOD NOTES: calorie-restriction mimetic ROS inhibitors, yeast – validation compound set, pilot screen (AID 2706);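 note: yeast exposed to compound for one week at 30 degrees C before staining; 100% = mean of all compound wells on the same plate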
- ASSAY SETUP: S. cerevisiae aging, superoxide DHE fluorescence; at 10 µM; stronger effect = lower value
Give bare numbers, in %.

Answered examples (4):
>>> experimental_value("NS(=O)(=O)c1cc2c(cc1Cl)NCNS2(=O)=O")
89.4
>>> experimental_value("CCc1cc(-c2[nH]ncc2-c2ccc3c(c2)OCO3)c(O)cc1O")
92.1
>>> experimental_value("CCCc1cc(C(N)=S)ccn1")
97
>>> experimental_value("NCCCC(N)(C(=O)O)C(F)F (configuration not stated)")
105

# batch size: 2; output superoxide response (% of plate) per entry
1. Cc1ccc(S(=O)(=O)NC(C(=O)Oc2ccc3c(C(F)(F)F)cc(=O)oc3c2)c2ccccc2)cc1 (configuration not stated)
2. Cc1ccc(-c2nn(-c3cccc(F)c3)cc2CN2CCN(c3ccccn3)CC2)o1

RESULT:
1: 106; 2: 95.7

###

- TARGET OF ASSAY: Guanine nucleotide-binding protein G(o) subunit alpha (Homo sapiens) (UniProt P09471)
- Sequence (P09471 whole entry, looked up): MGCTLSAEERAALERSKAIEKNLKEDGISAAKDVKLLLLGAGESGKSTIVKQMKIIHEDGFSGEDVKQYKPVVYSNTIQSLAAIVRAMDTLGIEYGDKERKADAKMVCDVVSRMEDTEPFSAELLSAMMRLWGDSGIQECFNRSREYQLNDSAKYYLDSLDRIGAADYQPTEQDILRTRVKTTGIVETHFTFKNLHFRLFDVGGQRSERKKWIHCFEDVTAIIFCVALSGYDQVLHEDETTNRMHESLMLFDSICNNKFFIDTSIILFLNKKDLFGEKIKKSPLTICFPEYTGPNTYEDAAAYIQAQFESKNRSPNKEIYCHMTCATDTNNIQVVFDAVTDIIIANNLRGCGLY
- TEST METHOD NOTES: retest of RGS8-Galphao interaction hits – biochemical, multiplexed bead flow cytometry, single concentration, confirmation (AID 1836);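 note: Galphao activated as GDP AlF4 complex before binding bead RGS8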
- ASSAY SETUP: bead-based flow cytometry RGS8-Galphao binding, fluorescence; at 10 µM; actives lie on both sides
Some of the results follow.
What binding response (% of control) was measured for each of the following?
One number for each entry, in %.

>>> experimental_value("CCC(=O)N1CCC(C(N)=O)(N2CCCCC2)CC1")
93.5
>>> experimental_value("CCOc1ccc(NC(=O)CSc2nc3ccccc3c(=O)n2Cc2cccs2)cc1")
101
>>> experimental_value("O=c1[nH]c2ccccc2s1")
103
>>> experimental_value("COCCNC(=S)N/N=C/c1c(C)[nH]c2ccccc12")
105

For every item in the list below, what is its measured binding response (% of control)?
1. Fc1cc(F)c2nc(Nc3nc4c(F)cccc4s3)sc2c1
2. Cc1cc(C)cc(N(CC(=O)Nc2c(C)n(C)n(-c3ccccc3)c2=O)S(C)(=O)=O)c1
3. CCOC(=O)CSc1nc2c(c(=O)n(Cc3ccccc3Cl)c(=O)n2C)n1C

RESULT:
1: 103; 2: 104; 3: 95.8

###

- TARGET OF ASSAY: GTPase HRas (Homo sapiens)
- TEST METHOD NOTES: blockade of GTP loading onto mutant Ras – biochemical, activated mutant, multiplex bead flow cytometry, dose response (AID 1341);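 note: GST-tagged constitutively activated Ras mutant immobilized on beads and multiplexed with other GTPases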
- ASSAY SETUP: bead-based flow cytometry, Bodipy-FL-GTP binding; series mostly up to 100 µM
Potency and affinity values are given separately. Activity calls are given as the source filed them.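 How the source made its calls: active means dose-response curve with midpoint inside the tested range, moderate steepness, significant amplitude and little compound fluorescence or bead-attachment interference; inactive means the rest.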
RECORDED METRIC: outcome

Solved entries:
>>> experimental_value("CCC(C)NC(=O)CSc1nc2n[nH]c(C)c2c(=N)n1-c1ccc(OC)cc1 (configuration not stated)")
"inactive"
>>> experimental_value("C/C(=C1/SC(=S)N(CCC(=O)O)C1=O)c1ccc(O)cc1")
"inactive"
>>> experimental_value("S=c1[nH]nc(-c2ccc3ccccc3n2)n1-c1ccccc1Cl")
"inactive"
>>> experimental_value("O=c1c2ccccc2nc2c3ccccc3c(Cl)nn12")
"inactive"

Consider the following items and state reported outcome for each.
1. Oc1c(CN2CCOCC2)ccc2ccccc12
2. N#C/C(=C\c1ccncc1)c1nc2ccccc2[nH]1
3. Cc1ccc(C)c(NC(=S)NNC(=O)c2cc3c(s2)CCC(C)C3)c1 (configuration not stated)

RESULT:
1. inactive
2. inactive
3. inactive
